- study target: T1, human serum albumin (human, UniProt P02768 25-609)
- T1 construct: mature; Bought purified serum albumin; also called HSA; Human albumin
- protocol notes: SPR, Fab captured; albumin taken as HSA;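 note: antibody captured on the sensor surface, albumin injected for a 3 min association phase, then dissociation followed, with signals corrected against a blank flow cell and buffer-only injections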
readout type: pKd
Please note pKd is a logarithmic value: minus log10 of concentration in mol/L. Answer with that number alone.

The examples below pair each entry with its known result.
binder: CA645 gL24gH5 Fab (Fab, V domains shown, Fab: human gamma1 CH1, human kappa (Km3); Kabat numbering) VH: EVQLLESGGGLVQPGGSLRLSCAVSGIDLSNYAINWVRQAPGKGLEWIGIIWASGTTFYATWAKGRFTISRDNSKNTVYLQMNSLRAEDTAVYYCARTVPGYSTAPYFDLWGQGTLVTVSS VL: DIQMTQSPSSVSASVGDRVTITCQSSPSVWVNFLSWYQQKPGKAPKLLIYEASKLTSGVPSRFSGSGSGTDFTLTISSLQPEDFATYYCGGGYSSISDTTFGGGTKVEIK
pKd: 7.79
//
binder: CA645 gL21gH5 Fab (Fab, V domains shown, Fab: human gamma1 CH1, human kappa (Km3); Kabat numbering) VH: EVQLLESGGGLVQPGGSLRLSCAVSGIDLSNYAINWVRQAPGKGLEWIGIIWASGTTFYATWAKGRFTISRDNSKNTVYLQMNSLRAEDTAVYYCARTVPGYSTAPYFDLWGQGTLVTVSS VL: DIQMTQSPSSVSASVGDRVTITCQSSPSVWENFLSWYQQKPGKAPKLLIYEASKLTSGVPSRFSGSGSGTDFTLTISSLQPEDFATYYCGGGYSSISDTTFGGGTKVEIK
pKd: 8.20
//
binder: CA645 gL20gH5 Fab (Fab, V domains shown, Fab: human gamma1 CH1, human kappa (Km3); Kabat numbering) VH: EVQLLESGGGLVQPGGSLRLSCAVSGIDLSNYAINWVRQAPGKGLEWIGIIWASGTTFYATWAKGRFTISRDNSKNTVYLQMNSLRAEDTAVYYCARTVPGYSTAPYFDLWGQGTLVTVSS VL: DIQMTQSPSSVSASVGDRVTITCQSSPSVWQNFLSWYQQKPGKAPKLLIYEASKLTSGVPSRFSGSGSGTDFTLTISSLQPEDFATYYCGGGYSSISDTTFGGGTKVEIK
pKd: 7.84

Quick one: pKd of CA645 gL17gH5 Fab (Fab, V domains shown, Fab: human gamma1 CH1, human kappa (Km3); Kabat numbering) VH: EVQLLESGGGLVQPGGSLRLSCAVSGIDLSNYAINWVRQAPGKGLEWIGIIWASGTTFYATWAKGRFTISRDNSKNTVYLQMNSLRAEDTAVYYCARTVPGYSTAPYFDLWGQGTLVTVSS VL: DIQMTQSPSSVSASVGDRVTITCQSSPSVWNNFLSWYQQKPGKAPKLLIYEASKLTSGVPSRFSGSGSGTDFTLTISSLQPEDFATYYCGGGYSSISDTTFGGGTKVEIK ?
8.26

Then what about the binder CA645 gL4gH33 Fab (Fab, V domains shown, Fab: human gamma1 CH1, human kappa (Km3); Kabat numbering) VH: EVQLLESGGGLVQPGGSLRLSCAVSGIDLSNYAINWVRQAPGKGLEWIGIIWALGTTFYATWAKGRFTISRDNSKNTVYLQMNSLRAEDTAVYYCARTVPGYSTAPYFDLWGQGTLVTVSS VL: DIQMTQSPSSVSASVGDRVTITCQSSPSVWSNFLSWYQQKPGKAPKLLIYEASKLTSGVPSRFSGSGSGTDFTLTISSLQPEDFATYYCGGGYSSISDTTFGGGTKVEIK ?
8.21

Then what about the binder CA645 gL23gH5 Fab (Fab, V domains shown, Fab: human gamma1 CH1, human kappa (Km3); Kabat numbering) VH: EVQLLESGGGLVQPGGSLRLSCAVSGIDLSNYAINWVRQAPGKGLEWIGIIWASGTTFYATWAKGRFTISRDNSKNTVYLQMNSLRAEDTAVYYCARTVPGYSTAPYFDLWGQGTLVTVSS VL: DIQMTQSPSSVSASVGDRVTITCQSSPSVWLNFLSWYQQKPGKAPKLLIYEASKLTSGVPSRFSGSGSGTDFTLTISSLQPEDFATYYCGGGYSSISDTTFGGGTKVEIK ?
7.83

Then what about the binder CA645 gL18gH5 Fab (Fab, V domains shown, Fab: human gamma1 CH1, human kappa (Km3); Kabat numbering) VH: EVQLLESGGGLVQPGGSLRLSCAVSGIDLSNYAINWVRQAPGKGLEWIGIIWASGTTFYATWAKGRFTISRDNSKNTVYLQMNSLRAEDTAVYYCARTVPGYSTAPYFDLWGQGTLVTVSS VL: DIQMTQSPSSVSASVGDRVTITCQSSPSVWINFLSWYQQKPGKAPKLLIYEASKLTSGVPSRFSGSGSGTDFTLTISSLQPEDFATYYCGGGYSSISDTTFGGGTKVEIK ?
7.81
